- Test system: SUDHL5 cells
- protocol summary: Induction of cytotoxicity (CellTiter-Glo, 5 h), SUDHL5
- condition parameters: read-out: Cytotox SUDHL5 [M] (median); IC50, median; SUDHL5, 5 h; listed as 081
endpoint name: IC50 (M)

[[record]]
molecule = "Cc1c2c(nn1C)COCC1CCC1Cn1c(C(=O)O)c(CCCOc3cccc4ccccc34)c3ccc(Cl)c-2c31 (single isomer, unassigned)"
value_units = "M"
recorded_value = "5.8e-06"


====

- Test system: SUDHL5 cells
- protocol summary: Antiproliferation assay (CellTiter-Glo, 72 h), SUDHL5
- Assay type: cell-based
- condition parameters: IC50, median; SUDHL5, 72 h; listed as 076; read-out: Antiproli SUDHL5 [M] (median)
endpoint name: IC50 (M)

[[record]]
compound = "CCc1c2c(nn1C)CN(CC(F)F)CCCCn1c(C(=O)O)c(CCCOc3cccc4cc(F)ccc34)c3ccc(Cl)c-2c31 (single isomer, unassigned; enantiomer 2)"
recorded_value = "3.2e-07"

